# Tested on: HIV-IIIb IN T174I BT
# Assay comment: Antiviral assay in MT4 cells, HIV-IIIb IN T174I BT virus (from viral breakthrough)
# Type: cell-based, HIV-1
# Assay conditions: Human immunodeficiency virus 1, IIIB, MT4, 120 h, read-out: T174I BT EC50, MT4 cells, HIV-IIIb IN T174I BT (viral breakthrough), 5 days, CellTiter-Glo
# Method: Antiviral Assay in MT4 Cells […] Assay plates were then maintained in a humidified, 5% CO2 incubator at 37° C. […] Cell lysis was carried out by incubating at room temperature for 10 minutes and then chemiluminescence was read using an Envision plate reader (PerkinElmer). […]
Quick reference for log10(EC50) among some compounds
Measurement type: log10(EC50) (log10 of the value in nM)

compound="Cc1cc2nc(-c3cnc4c(c3)c(C3=CCN(C)CC3)cn4C)sc2c(-c2ccc(Cl)cc2)c1[C@H](OC(C)(C)C)C(=O)O [Compound 105]" test_system="HIV-IIIb IN T174I BT" observed=3.16
compound="Cc1cc2nc(-c3ccc4c(c3)c(N3CCOCC3)nn4C)sc2c(-c2ccc(Cl)cc2)c1[C@H](OC(C)(C)C)C(=O)O [Compound 144]" test_system="HIV-IIIb IN T174I BT" observed=3.26
compound="Cc1cc2nc(-c3ccc4c(n3)c(N3CCN(C5COC5)CC3)nn4C)sc2c(-c2ccc(Cl)cc2)c1[C@H](OC(C)(C)C)C(=O)O [Compound 15]" test_system="HIV-IIIb IN T174I BT" observed=2.82
compound="Cc1cc2nc(-c3ccc4c(c3)c(N3CCN(C)CC3)nn4C)sc2c(-c2ccc(Cl)cc2)c1[C@H](OC1CC1)C(=O)O [Compound 103]" test_system="HIV-IIIb IN T174I BT" observed=2.43
compound="Cc1cc2nc(-c3cnc4c(n3)c(C3CCN(C5COC5)CC3)cn4C)sc2c(-c2ccc(Cl)cc2)c1[C@H](OC(C)(C)C)C(=O)O [Compound 16]" test_system="HIV-IIIb IN T174I BT" observed=2.02
compound="COC(=O)N1CC(N2CCC(c3c4nc(-c5nc6cc(C)c([C@H](OC(C)(C)C)C(=O)O)c(-c7ccc(Cl)cc7)c6s5)ccc4nn3C(F)F)CC2)C1 [Compound 190]" test_system="HIV-IIIb IN T174I BT" observed=3.25
compound="Cc1cc2nc(-c3ccc4c(c3)c(C3CCN(C(=O)C5COC5)CC3)nn4C)sc2c(-c2ccc(Cl)cc2)c1[C@H](OC(C)(C)C)C(=O)O [Compound 161]" test_system="HIV-IIIb IN T174I BT" observed=2.50
compound="Cc1cc2nc(-c3ccc4c(c3)c(N3CCC(C)(C(=O)N(C)C)CC3)nn4C)sc2c(-c2ccc(Cl)cc2)c1[C@H](OC(C)(C)C)C(=O)O [Compound 137]" test_system="HIV-IIIb IN T174I BT" observed=2.84
compound="COCCN1CC(c2nn(C)c3ccc(-c4nc5cc(C)c([C@H](OC(C)(C)C)C(=O)O)c(-c6ccc(Cl)cc6)c5s4)cc23)C1 [Compound 56]" test_system="HIV-IIIb IN T174I BT" observed=3.14
compound="Cc1cc2nc(-c3ccc4c(c3)c(N3CCCN(C)CC3)nn4C)sc2c(-c2ccc(Cl)cc2)c1[C@H](OC(C)(C)C)C(=O)O [Compound 132]" test_system="HIV-IIIb IN T174I BT" observed=3.04
compound="COCCOC(=O)N1CCC(c2nn(C)c3ccc(-c4nc5cc(C)c([C@H](OC(C)(C)C)C(=O)O)c(-c6ccc(Cl)cc6)c5s4)cc23)C1 (stereo partly drawn) [Compound 73]" test_system="HIV-IIIb IN T174I BT" observed=2.86
compound="Cc1cc2nc(-c3ccc4c(c3)c(C3CCN(C5CNC5)CC3)nn4C)sc2c(-c2ccc(Cl)cc2)c1[C@H](OC(C)(C)C)C(=O)O [Compound 29]" test_system="HIV-IIIb IN T174I BT" observed=2.81

* * *

# System: HIV-IIIb IN T174I DE
# Assay comment: Antiviral assay in MT4 cells, HIV-IIIb IN T174I DE virus (from dose escalation passaging)
# Type: cell-based, HIV-1
# Assay conditions: Human immunodeficiency virus 1, IIIB, MT4, 120 h, read-out: T174I DE EC50, MT4 cells, HIV-IIIb IN T174I DE (dose escalation), 5 days, CellTiter-Glo
Label key: rule met means EC50 under 2000 nM; rule not met means EC50 of 2000 nM or more.

molecule="COC1CCN(c2nn(C)c3ccc(-c4nc5cc(C)c([C@H](OC(C)(C)C)C(=O)O)c(-c6ccc(Cl)cc6)c5s4)cc23)CC1 [Compound 142]" test_system="HIV-IIIb IN T174I DE" group="rule not met"
molecule="COC(=O)N1CC(N2CCC(c3nn(C(F)F)c4ccc(-c5nc6cc(C)c([C@H](OC(C)(C)C)C(=O)O)c(-c7ccc(Cl)cc7)c6s5)cc34)CC2)C1 [Compound 44]" test_system="HIV-IIIb IN T174I DE" group="rule met"
molecule="Cc1cc2nc(-c3ccc4c(c3)c(C3CCN(C5COC5)CC3)nn4CC(F)F)sc2c(-c2ccc(Cl)cc2)c1[C@H](OC(C)(C)C)C(=O)O [Compound 42]" test_system="HIV-IIIb IN T174I DE" group="rule not met"
molecule="[2H]C([2H])([2H])C(O[C@H](C(=O)O)c1c(C)cc2nc(-c3ccc4c(c3)c(C3CCN(C5COC5)CC3)nn4C)sc2c1-c1ccc(Cl)cc1)(C([2H])([2H])[2H])C([2H])([2H])[2H] [Compound 21]" test_system="HIV-IIIb IN T174I DE" group="rule met"
molecule="CCN1CCN(c2nn(C)c3ccc(-c4nc5cc(C)c([C@H](OC(C)(C)C)C(=O)O)c(-c6ccc(Cl)cc6)c5s4)cc23)CC1=O [Compound 84]" test_system="HIV-IIIb IN T174I DE" group="rule met"

* * *

pEC50 values by entry
# Test system: HIV-IIIb IN T174I BT
# Assay comment: Antiviral assay in MT4 cells, HIV-IIIb IN T174I BT virus (from viral breakthrough)
# Type: cell-based, HIV-1
# Assay conditions: Human immunodeficiency virus 1, IIIB, MT4, 120 h, read-out: T174I BT EC50, MT4 cells, HIV-IIIb IN T174I BT (viral breakthrough), 5 days, CellTiter-Glo
pEC50: −log10 of the molar value.
Measurement type: pEC50

compound="COCCN1CCC(c2nn(C)c3ccc(-c4nc5cc(C)c([C@H](OC(C)(C)C)C(=O)O)c(-c6ccc(Cl)cc6)c5s4)cc23)C1 (stereo partly drawn) [Compound 65]" test_system="HIV-IIIb IN T174I BT" measurement_type=pEC50 observed=6.12
compound="Cc1cc2nc(-c3ccc4c(c3)c(N3CC5CC(C3)O5)nn4C)sc2c(-c2ccc(Cl)cc2)c1[C@H](OC(C)(C)C)C(=O)O [Compound 143]" test_system="HIV-IIIb IN T174I BT" measurement_type=pEC50 observed=5.24
compound="Cc1cc2nc(-c3ccc4c(n3)c(C3CCN([C@H]5C[C@H](O)C5)CC3)nn4C)sc2c(-c2ccc(Cl)cc2)c1[C@H](OC(C)(C)C)C(=O)O [Compound 186]" test_system="HIV-IIIb IN T174I BT" measurement_type=pEC50 observed=6.44

* * *

# Tested on: HIV-IIIb (wildtype)
# Assay comment: Antiviral assay in MT4 cells, HIV-IIIb wildtype
# Format: cell-based, HIV-1
# Assay conditions: read-out: WT EC50; MT4 cells, HIV-IIIb wildtype, 5 days, CellTiter-Glo
pEC50: −log10 of the molar value.
Measurement type: pEC50

compound="COCC(=O)N1CCC(c2nn(C)c3ccc(-c4nc5cc(C)c([C@H](OC(C)(C)C)C(=O)O)c(-c6ccc(Cl)cc6)c5s4)cc23)C1 (stereo partly shown) [Compound 76]" observed=7.80

* * *

# Test system: HIV-IIIb IN T174I DE
# Assay comment: Antiviral assay in MT4 cells, HIV-IIIb IN T174I DE virus (from dose escalation passaging)
# Type: cell-based, HIV-1
# Assay conditions: Human immunodeficiency virus 1, IIIB, MT4, 120 h, read-out: T174I DE EC50, MT4 cells, HIV-IIIb IN T174I DE (dose escalation), 5 days, CellTiter-Glo
Measurement type: EC50 (nM)

structure_notation=Cc1cc2nc(-c3ccc4c(c3)c(N3CC5CCC(C3)O5)nn4C)sc2c(-c2ccc(Cl)cc2)c1[C@H](OC(C)(C)C)C(=O)O measurement_type=EC50 unit_abbreviation=nM observed=3930
structure_notation=Cc1cc2nc(-c3ccc4c(c3)c(C3CCN(C5CN(C)C5)CC3)nn4C)sc2c(-c2ccc(Cl)cc2)c1[C@H](OC(C)(C)C)C(=O)O measurement_type=EC50 unit_abbreviation=nM observed=236
structure_notation=Cc1cc2nc(-c3cnc4c(c3)c(C3CCN(C5COC5)CC3)cn4C)sc2c(-c2ccc(Cl)cc2)c1[C@H](OC(C)(C)C)C(=O)O measurement_type=EC50 unit_abbreviation=nM observed=786
